# subjectOfTest: Progesterone receptor (Homo sapiens) (UniProt P06401)
# Sequence (P06401 whole entry, looked up): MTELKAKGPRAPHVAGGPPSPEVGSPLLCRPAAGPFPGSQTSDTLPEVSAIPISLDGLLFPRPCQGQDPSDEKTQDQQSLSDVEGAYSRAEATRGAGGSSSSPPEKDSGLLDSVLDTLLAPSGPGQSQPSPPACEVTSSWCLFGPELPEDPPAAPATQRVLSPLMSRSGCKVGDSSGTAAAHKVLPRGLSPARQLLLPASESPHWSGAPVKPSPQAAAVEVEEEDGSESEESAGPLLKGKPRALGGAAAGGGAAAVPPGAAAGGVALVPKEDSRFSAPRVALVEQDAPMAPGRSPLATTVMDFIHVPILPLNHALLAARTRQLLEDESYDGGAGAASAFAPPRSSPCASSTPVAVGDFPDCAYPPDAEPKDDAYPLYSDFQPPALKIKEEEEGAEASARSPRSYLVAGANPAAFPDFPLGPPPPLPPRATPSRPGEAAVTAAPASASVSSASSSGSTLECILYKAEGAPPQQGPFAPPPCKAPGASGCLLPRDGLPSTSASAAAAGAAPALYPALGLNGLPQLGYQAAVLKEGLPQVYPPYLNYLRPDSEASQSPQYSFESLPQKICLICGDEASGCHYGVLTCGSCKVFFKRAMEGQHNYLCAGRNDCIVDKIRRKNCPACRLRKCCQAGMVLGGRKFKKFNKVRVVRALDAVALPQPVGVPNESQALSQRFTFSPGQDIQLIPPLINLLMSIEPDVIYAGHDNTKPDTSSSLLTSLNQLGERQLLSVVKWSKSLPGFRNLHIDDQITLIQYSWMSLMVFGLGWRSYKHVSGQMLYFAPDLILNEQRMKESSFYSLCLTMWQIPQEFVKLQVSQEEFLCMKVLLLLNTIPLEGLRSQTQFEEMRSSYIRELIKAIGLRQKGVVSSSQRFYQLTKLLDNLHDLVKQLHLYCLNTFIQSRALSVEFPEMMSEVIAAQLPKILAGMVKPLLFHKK
# measurementNotes: qHTS assay to identify small molecule agonists of the progesterone receptor (PR) signaling pathway (AID 1346784); note: nearly all actives have a fitted effect of over 30% in size
# particulars: PR-UAS-bla HEK293T, beta-lactamase FRET ratio, 16 h; series mostly up to 92.4 µM
# Excerpt: U.S. Tox21 Program National Center for Advancing Translational Sciences [NCATS] NIH Chemical Genomics Center [NCGC] U.S. Environmental Protection Agency [EPA] National Institutes of Environmental Health Sciences [NIEHS] National Toxicology Program [NTP] U.S. Food and Drug Administration [FDA] […] Endocrine disrupting chemicals (EDCs) and their interactions with steroid hormone receptors like PR causes disruption of normal endocrine function. […]
Records with an inconclusive call do not appear. Calls of active or inactive are those of the source. Calls come from the whole dose curve.
Labels: label 1 for active, label 0 for inactive

>>> group("C[C@H]1C[C@H]2[C@@H]3CCC4=CC(=O)C=C[C@]4(C)[C@@]3(F)[C@@H](O)C[C@]2(C)[C@@]1(O)C(=O)COP(=O)(O)O")
"label 0"
>>> group("Cc1cc(N)n(-c2ccccc2)n1")
"label 0"
>>> group("O=C(Nc1ccccc1)c1cc([N+](=O)[O-])ccc1Cl")
"label 0"
>>> group("S=c1[nH][nH]c(=S)s1")
"label 0"
>>> group("O=C(O)CCc1nc2ccccc2[nH]1")
"label 0"
>>> group("O=[N+]([O-])c1ccc(Cl)cc1Cl")
"label 1"
>>> group("C(/C=C/C=C/Nc1ccccc1)=Nc1ccccc1")
"label 0"
>>> group("CC(CC(C#N)(c1ccccc1)C(C)C)N(C)C (configuration not stated)")
"label 0"
>>> group("Cc1c(Cl)cccc1[N+](=O)[O-]")
"label 0"
>>> group("C1=COCCC1")
"label 0"
>>> group("Nc1ccc(F)cc1F")
"label 0"
>>> group("COC(=O)Cc1cccc2ccccc12")
"label 0"
>>> group("CCC(C)CCCC(C)(C)O (configuration not stated)")
"label 0"
>>> group("SCCOCCOCCS")
"label 0"
>>> group("COc1cc(C)c(Cc2cnc(N)nc2N)cc1OC")
"label 0"
>>> group("C=CC(=O)OCCCCCCCCCC")
"label 0"
>>> group("Sc1nc(S)nc(S)n1")
"label 0"
